assay: acute toxicity, guinea-pig; settings: in vivo, ip, dissolved in physiological salt solution
Observation Type: LD50

Molecule | Value Observed
CC(OC(=O)c1cccnc1)c1nc2c(c(=O)n(C)c(=O)n2C)n1C (stereo not drawn) [8-[α-(nicotinoyloxy)-ethyl]-caffeine] | 220 mg/kg

* * *

test: survival / late mortality of guinea-pigs treated in the broncholitic activity test (48 hours, oral route); settings: guinea pig, in vivo, po, 300 mg/kg
Observation Type: survival at 48 h

Compound | Value Observed
CC(OC(=O)c1cccnc1)c1nc2c(c(=O)n(C)c(=O)n2C)n1C.Cl (centres unmarked) [386/770, monohydrochloride] | 100%
Cc1ccnc(C)c1C(=O)OC(C)c1nc2c(c(=O)n(C)c(=O)n2C)n1C.Cl (centres unmarked) [386/986, monohydrochloride] | 100%
